- Test system: OVCAR-5 ovarian
- test_method_notes: NCI-60 one-dose screen, 48 h (100 = growth as untreated, 0 = no growth, -100 = all killed)
- study_conditions: 10 µM unless noted
About 83,000 compounds went through this panel and 20% of them were active in at least one assay; those are over-represented in the sample as a whole.
attribute_measured: growth (%)
Report the value in % with no unit label.

# example entries with known answers
OCc1cnccc1NCCCCOc1ccc(Oc2ccccc2)cc1    84.1
O=C(O)c1ccc(NCc2cn(-c3ccc(C(F)(F)F)cc3)nc2-c2ccc(C(=O)O)cc2)cc1    103

The compound listed as COc1ccc(C(=O)c2cc(C)c(OC)c(C)c2)c(OC)c1N(C(=O)CCl)C(=O)CCl shows growth equal to 29.2

Memo: COc1cc2nc(-c3ccc(C(F)(F)F)cc3)cc(OCCCN3CCOCC3)c2cc1OC , reported growth: 45.8

The compound O=C1Nc2cc(-c3ccc(NS(=O)(=O)c4ccccc4)cc3)ccc2/C1=C/c1ccc[nH]1 showed growth equal to 52
